- test name: Lipophilicity, log P of the compound
- Format: physicochemical
- recorded conditions: octanol/water; read-out: LogP
Reported LogP is given for each of the following compounds.

| smiles str | LogP |
| --- | --- |
| Cl.O=C1/C(=C/c2ccc([N+](=O)[O-])cc2)CN(C(=O)c2ccc(OCCN3CCOCC3)cc2)C/C1=C\c1ccc([N+](=O)[O-])cc1 | 4.36 |
| Cc1ccc(/C=C2\CN(C(=O)c3ccc(OCCN4CCOCC4)cc3)C/C(=C\c3ccc(C)cc3)C2=O)cc1.Cl | 5.34 |
| Cl.O=C1/C(=C/c2ccc(Cl)cc2)CN(C(=O)c2ccc(OCCN3CCOCC3)cc2)C/C1=C\c1ccc(Cl)cc1 | 5.8 |
| CC[N+](C)(CC)CCOc1ccc(C(=O)N2C/C(=C\c3ccccc3)C(=O)/C(=C/c3ccccc3)C2)cc1.[I-] | 1.37 |
| CC[N+](C)(CC)CCOc1ccc(C(=O)N2C/C(=C\c3ccc(Cl)cc3)C(=O)/C(=C/c3ccc(Cl)cc3)C2)cc1.[I-] | 2.73 |
| Cl.O=C1/C(=C/c2ccccc2)CN(C(=O)c2ccc(OCCN3CCOCC3)cc2)C/C1=C\c1ccccc1 | 4.64 |
| CC[N+](C)(CC)CCOc1ccc(C(=O)N2C/C(=C\c3ccc(C)cc3)C(=O)/C(=C/c3ccc(C)cc3)C2)cc1.[I-] | 2.27 |
| CN(C)CCOc1ccc(C(=O)N2C/C(=C\c3ccc([N+](=O)[O-])cc3)C(=O)/C(=C/c3ccc([N+](=O)[O-])cc3)C2)cc1.Cl | 4.52 |
| CC[N+](C)(CC)CCOc1ccc(C(=O)N2C/C(=C\c3ccc([N+](=O)[O-])cc3)C(=O)/C(=C/c3ccc([N+](=O)[O-])cc3)C2)cc1.[I-] | 1.3 |

====

- target desc: ATP-dependent translocase ABCB1 (Homo sapiens)
- Sequence (P08183 whole entry): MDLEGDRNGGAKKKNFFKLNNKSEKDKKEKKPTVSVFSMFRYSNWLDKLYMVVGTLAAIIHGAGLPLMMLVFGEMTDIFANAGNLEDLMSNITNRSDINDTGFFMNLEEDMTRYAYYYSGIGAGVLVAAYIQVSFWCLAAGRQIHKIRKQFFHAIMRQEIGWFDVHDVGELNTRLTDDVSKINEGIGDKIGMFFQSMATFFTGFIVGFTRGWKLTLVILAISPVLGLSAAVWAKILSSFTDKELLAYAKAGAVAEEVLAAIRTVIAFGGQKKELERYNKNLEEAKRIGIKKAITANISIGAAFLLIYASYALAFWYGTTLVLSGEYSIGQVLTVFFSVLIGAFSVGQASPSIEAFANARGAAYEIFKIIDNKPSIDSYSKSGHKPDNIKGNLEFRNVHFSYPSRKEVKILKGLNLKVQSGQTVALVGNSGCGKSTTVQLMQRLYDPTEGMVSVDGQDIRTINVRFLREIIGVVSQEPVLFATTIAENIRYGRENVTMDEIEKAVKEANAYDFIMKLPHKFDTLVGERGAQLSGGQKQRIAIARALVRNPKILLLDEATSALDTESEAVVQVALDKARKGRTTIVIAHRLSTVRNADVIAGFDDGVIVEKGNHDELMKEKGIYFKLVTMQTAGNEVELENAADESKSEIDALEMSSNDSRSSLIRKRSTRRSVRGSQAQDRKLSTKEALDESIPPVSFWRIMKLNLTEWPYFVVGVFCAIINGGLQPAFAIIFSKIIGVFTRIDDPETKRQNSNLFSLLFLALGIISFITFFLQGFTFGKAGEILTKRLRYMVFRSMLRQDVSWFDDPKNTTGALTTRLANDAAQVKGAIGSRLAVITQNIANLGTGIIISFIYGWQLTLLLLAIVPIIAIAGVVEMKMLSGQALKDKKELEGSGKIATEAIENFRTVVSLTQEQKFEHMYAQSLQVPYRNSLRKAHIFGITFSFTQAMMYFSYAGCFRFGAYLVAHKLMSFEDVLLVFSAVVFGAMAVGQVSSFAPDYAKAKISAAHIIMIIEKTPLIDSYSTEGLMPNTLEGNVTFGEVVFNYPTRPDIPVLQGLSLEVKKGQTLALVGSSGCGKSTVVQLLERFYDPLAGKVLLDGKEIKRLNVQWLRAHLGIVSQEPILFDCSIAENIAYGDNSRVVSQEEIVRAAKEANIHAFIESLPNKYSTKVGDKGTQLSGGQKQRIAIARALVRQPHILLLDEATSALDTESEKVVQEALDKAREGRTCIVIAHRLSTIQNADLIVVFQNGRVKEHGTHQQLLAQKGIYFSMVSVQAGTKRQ
- test name: Reversal of P-glycoprotein-mediated multidrug resistance in human MDR1 gene transfected mouse L5178Y cells assessed as fluorescence activity ratio at 4 ug/ml by flow cytometry
- Assay type: cell-based
Reported Ratio is given for each of the following compounds.

| smiles str | Ratio |
| --- | --- |
| Cl.O=C1/C(=C/c2ccc([N+](=O)[O-])cc2)CN(C(=O)c2ccc(OCCN3CCCCC3)cc2)C/C1=C\c1ccc([N+](=O)[O-])cc1 | 145 |
| CCN(CC)CCOc1ccc(C(=O)N2C/C(=C\c3ccc([N+](=O)[O-])cc3)C(=O)/C(=C/c3ccc([N+](=O)[O-])cc3)C2)cc1.Cl | 77.5 |
| CC[N+](C)(CC)CCOc1ccc(C(=O)N2C/C(=C\c3ccccc3)C(=O)/C(=C/c3ccccc3)C2)cc1.[I-] | 1.37 |
| Cl.O=C1/C(=C/c2ccc(Cl)cc2)CN(C(=O)c2ccc(OCCN3CCOCC3)cc2)C/C1=C\c1ccc(Cl)cc1 | 76 |
| O=C1/C(=C/c2ccccc2)CNC/C1=C\c1ccccc1 | 1.58 |
| CCN(CC)CCOc1ccc(C(=O)N2C/C(=C\c3ccc(Cl)cc3)C(=O)/C(=C/c3ccc(Cl)cc3)C2)cc1.Cl | 118 |
| CCN(CC)CCOc1ccc(C(=O)N2C/C(=C\c3ccc(C)cc3)C(=O)/C(=C/c3ccc(C)cc3)C2)cc1.Cl | 106 |
| CN(C)CCOc1ccc(C(=O)N2C/C(=C\c3ccccc3)C(=O)/C(=C/c3ccccc3)C2)cc1.Cl | 45.5 |
| Cc1ccc(/C=C2\CN(C(=O)c3ccc(OCCN4CCCCC4)cc3)C/C(=C\c3ccc(C)cc3)C2=O)cc1.Cl | 179 |
| CC[N+](C)(CC)CCOc1ccc(C(=O)N2C/C(=C\c3ccc(C)cc3)C(=O)/C(=C/c3ccc(C)cc3)C2)cc1.[I-] | 1.93 |
| CC[N+](C)(CC)CCOc1ccc(C(=O)N2C/C(=C\c3ccc([N+](=O)[O-])cc3)C(=O)/C(=C/c3ccc([N+](=O)[O-])cc3)C2)cc1.[I-] | 1.03 |
| O=C1/C(=C/c2ccc(Cl)cc2)CNC/C1=C\c1ccc(Cl)cc1 | 1.25 |
| Cc1ccc(/C=C2\CNC/C(=C\c3ccc(C)cc3)C2=O)cc1 | 3.26 |
| Cl.O=C1/C(=C/c2ccc(Cl)cc2)CN(C(=O)c2ccc(OCCN3CCCCC3)cc2)C/C1=C\c1ccc(Cl)cc1 | 157 |
| CC[N+](C)(CC)CCOc1ccc(C(=O)N2C/C(=C\c3ccc(Cl)cc3)C(=O)/C(=C/c3ccc(Cl)cc3)C2)cc1.[I-] | 1.21 |

====

- test name: Dissociation constant, pKa of the compound
- Assay type: physicochemical
Reported pKa is given for each of the following compounds.
measurement type: pKa

| smiles str | result number |
| --- | --- |
| CCN(CC)CCOc1ccc(C(=O)N2C/C(=C\c3ccccc3)C(=O)/C(=C/c3ccccc3)C2)cc1.Cl | 10.8 |
| Cc1ccc(/C=C2\CN(C(=O)c3ccc(OCCN(C)C)cc3)C/C(=C\c3ccc(C)cc3)C2=O)cc1.Cl | 10.7 |
| Cl.O=C1/C(=C/c2ccc([N+](=O)[O-])cc2)CN(C(=O)c2ccc(OCCN3CCCCC3)cc2)C/C1=C\c1ccc([N+](=O)[O-])cc1 | 11.1 |
| Cl.O=C1/C(=C/c2ccc([N+](=O)[O-])cc2)CN(C(=O)c2ccc(OCCN3CCOCC3)cc2)C/C1=C\c1ccc([N+](=O)[O-])cc1 | 8.5 |
| CN(C)CCOc1ccc(C(=O)N2C/C(=C\c3ccc(Cl)cc3)C(=O)/C(=C/c3ccc(Cl)cc3)C2)cc1.Cl | 10.7 |
| Cl.O=C1/C(=C/c2ccccc2)CN(C(=O)c2ccc(OCCN3CCOCC3)cc2)C/C1=C\c1ccccc1 | 8.5 |
| Cl.O=C1/C(=C/c2ccc(Cl)cc2)CN(C(=O)c2ccc(OCCN3CCOCC3)cc2)C/C1=C\c1ccc(Cl)cc1 | 8.5 |
| CCN(CC)CCOc1ccc(C(=O)N2C/C(=C\c3ccc([N+](=O)[O-])cc3)C(=O)/C(=C/c3ccc([N+](=O)[O-])cc3)C2)cc1.Cl | 10.8 |
| Cc1ccc(/C=C2\CN(C(=O)c3ccc(OCCN4CCOCC4)cc3)C/C(=C\c3ccc(C)cc3)C2=O)cc1.Cl | 8.5 |
| Cl.O=C1/C(=C/c2ccc(Cl)cc2)CN(C(=O)c2ccc(OCCN3CCCCC3)cc2)C/C1=C\c1ccc(Cl)cc1 | 11.1 |
| CN(C)CCOc1ccc(C(=O)N2C/C(=C\c3ccccc3)C(=O)/C(=C/c3ccccc3)C2)cc1.Cl | 10.7 |
| CN(C)CCOc1ccc(C(=O)N2C/C(=C\c3ccc([N+](=O)[O-])cc3)C(=O)/C(=C/c3ccc([N+](=O)[O-])cc3)C2)cc1.Cl | 10.7 |
| CCN(CC)CCOc1ccc(C(=O)N2C/C(=C\c3ccc(Cl)cc3)C(=O)/C(=C/c3ccc(Cl)cc3)C2)cc1.Cl | 10.8 |
| Cl.O=C1/C(=C/c2ccccc2)CN(C(=O)c2ccc(OCCN3CCCCC3)cc2)C/C1=C\c1ccccc1 | 11.1 |
| CCN(CC)CCOc1ccc(C(=O)N2C/C(=C\c3ccc(C)cc3)C(=O)/C(=C/c3ccc(C)cc3)C2)cc1.Cl | 10.8 |
| Cc1ccc(/C=C2\CN(C(=O)c3ccc(OCCN4CCCCC4)cc3)C/C(=C\c3ccc(C)cc3)C2=O)cc1.Cl | 11.1 |

====

- test name: Lipophilicity, log P of the compound
- Assay type: physicochemical
- recorded conditions: octanol/water
Classify: Criterion met when LogP is strictly less than 6; Criterion not met when LogP is not.

| smiles str | category |
| --- | --- |
| Cc1ccc(/C=C2\CN(C(=O)c3ccc(OCCN(C)C)cc3)C/C(=C\c3ccc(C)cc3)C2=O)cc1.Cl | Criterion met |
| Cc1ccc(/C=C2\CN(C(=O)c3ccc(OCCN4CCCCC4)cc3)C/C(=C\c3ccc(C)cc3)C2=O)cc1.Cl | Criterion not met |
| O=C1/C(=C/c2ccccc2)CNC/C1=C\c1ccccc1 | Criterion met |
| Cl.O=C1/C(=C/c2ccc([N+](=O)[O-])cc2)CN(C(=O)c2ccc(OCCN3CCCCC3)cc2)C/C1=C\c1ccc([N+](=O)[O-])cc1 | Criterion met |
| CCN(CC)CCOc1ccc(C(=O)N2C/C(=C\c3ccc(C)cc3)C(=O)/C(=C/c3ccc(C)cc3)C2)cc1.Cl | Criterion not met |
| CN(C)CCOc1ccc(C(=O)N2C/C(=C\c3ccccc3)C(=O)/C(=C/c3ccccc3)C2)cc1.Cl | Criterion met |
